# reported pEC50; entries follow
# measured.target: T1, gH/gL/UL128/UL130/UL131A pentamer complex expressed from MVA-PC in BHK-21 cells (human cytomegalovirus, UniProt P12824 24-743; P16832 31-278; P16837 28-171; P16772 1-214; F5HET4 19-129)
# T1 construct: whole, on cells
# assay.text: FC, biotinylated NAb titrated on MVA-PC-infected BHK-21 (cell surface PC)
pEC50 is a log-scale quantity: -log10 of the concentration expressed in molar.

{"binder": "62-100 (antibody, V domains shown, also called NAb 62-100) VH: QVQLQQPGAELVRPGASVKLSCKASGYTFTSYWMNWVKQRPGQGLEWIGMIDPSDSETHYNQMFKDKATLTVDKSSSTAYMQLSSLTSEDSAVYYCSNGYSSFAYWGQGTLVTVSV VL: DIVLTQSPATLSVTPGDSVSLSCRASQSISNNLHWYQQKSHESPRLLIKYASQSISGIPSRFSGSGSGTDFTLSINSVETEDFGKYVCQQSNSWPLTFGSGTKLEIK", "pEC50": 8.48}
{"binder": "1B2 (antibody, V domains shown, also called NAb 1B2) VH: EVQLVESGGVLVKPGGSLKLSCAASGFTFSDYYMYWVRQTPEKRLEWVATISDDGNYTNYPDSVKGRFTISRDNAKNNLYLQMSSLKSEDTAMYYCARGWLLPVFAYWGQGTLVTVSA VL: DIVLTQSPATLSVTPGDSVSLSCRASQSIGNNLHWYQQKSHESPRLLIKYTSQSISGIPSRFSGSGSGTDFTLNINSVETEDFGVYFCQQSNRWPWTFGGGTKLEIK", "pEC50": 9.49}

Would you kindly look at the next entry?
Specify measured pEC50 for 21F6 (antibody, V domains shown, also called NAb 21F6) VH: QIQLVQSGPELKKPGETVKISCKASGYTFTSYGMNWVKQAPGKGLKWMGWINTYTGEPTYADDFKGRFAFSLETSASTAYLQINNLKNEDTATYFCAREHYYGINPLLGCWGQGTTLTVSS VL: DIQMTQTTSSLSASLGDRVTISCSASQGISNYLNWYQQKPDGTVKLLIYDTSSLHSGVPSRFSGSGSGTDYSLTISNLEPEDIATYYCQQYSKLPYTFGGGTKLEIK . 9.21
